system: MOLT-4 leukemia; assay: NCI-60 one-dose screen, 48 h (100 = growth as untreated, 0 = no growth, -100 = all killed); conditions: 10 µM unless noted
This is part of a sample that, as a whole, favours compounds with a hit. Of some 83,000 tested, about 20% had one in any assay. Calls of active or inactive are those of the source. Rule for the calls: active = growth percent below 10; inactive = the rest.
Would you mind telling me the reported growth of each entry?

Observe how each entry below is paired with its result.
{"compound": "O=C1/C(=C/c2ccc(Cl)cc2)CCC/C1=C\\c1ccc(Cl)cc1", "growth": "80.2% (inactive)"}
{"compound": "c1ccc(C(=NNc2nc3ccccc3o2)c2ccccn2)nc1", "growth": "12.3% (inactive)"}
{"compound": "COc1cccc(Cn2cc3c(c2)-c2oncc2CC3)c1", "growth": "26.6% (inactive)"}
{"compound": "CCC(CCCN1C(=O)c2ccccc2C1=O)Nc1cc(OC)cc2c(C)ccnc12 (stereo not given)", "growth": "66.3% (inactive)"}
{"compound": "O=S(=O)(O)c1ccc2c(c1)Sc1cc(S(=O)(=O)O)ccc1O2", "growth": "115% (inactive)"}

Give measured growth for every item shown.
1. COc1ccc(/C=C(/C(=O)N2CCCCC2)c2cc(OC)c(OC)c(OC)c2)cc1
2. O=C(/C=C/c1c[nH]c2ccccc12)c1cc2ccccc2o1
3. OCCN1CCN(CC/C=C2/c3ccccc3Sc3ccc(C(F)(F)F)cc32)CC1
4. O=C1/C(=N\c2cc(=O)[nH]n2S(=O)(=O)c2ccccc2)Nc2ccccc21
5. O=C1c2cc([N+](=O)[O-])ccc2-c2cc(Cl)c(NC(=O)C(F)(F)F)cc21

Outgoing:
30.9% (inactive)
75.3% (inactive)
41.3% (inactive)
102% (inactive)
94% (inactive)

====

tested on: SW-620 colon; experiment: NCI-60 one-dose screen, 48 h (100 = growth as untreated, 0 = no growth, -100 = all killed); conditions: 10 µM unless noted
This is part of a sample that, as a whole, favours compounds with a hit. Of some 83,000 tested, about 20% had one in any assay.
readout_label: growth (%)
Answers are plain numbers, in %.

Observe how each entry below is paired with its result.
{"compound": "CC(C)C(=O)c1ccc(Cl)s1", "tested_system": "SW-620 colon", "unit_label": "%", "growth": 107}
{"compound": "COc1ccc(CNCCCN2C(=O)c3ccc4c5c(ccc(c35)C2=O)C(=O)N(CCCNCc2ccc(OC)c(OC)c2OC)C4=O)c(OC)c1OC", "tested_system": "SW-620 colon", "unit_label": "%", "growth": -94.6}
{"compound": "COc1ccc(Cn2cc3c(c2-c2ccccc2)CCc2cnoc2-3)cc1N", "tested_system": "SW-620 colon", "unit_label": "%", "growth": 23.5}
{"compound": "CCCC(=O)Nc1ccccc1C(=O)O", "tested_system": "SW-620 colon", "unit_label": "%", "growth": 105}
{"compound": "CC(=O)O.[In]", "tested_system": "SW-620 colon", "unit_label": "%", "growth": 106}

Give measured growth for every item shown.
1. CC(=O)N1N=C(c2ccc(Cl)cc2)CC1c1cn(-c2ccccc2)nc1-c1ccc([N+](=O)[O-])cc1 (stereo not given)
2. C=C(NC(=O)[C@H](C(C)C)N(C)c1cccc2[nH]ccc12)C(=O)OC
3. Cc1ccc(S(=O)(=O)Nc2cccc(Cn3c(=O)[nH]c4ccc(Oc5ncccn5)cc4c3=O)c2)cc1
4. O=C1Nc2c(c(=O)n(-c3ccccc3)c3ccccc23)C(c2ccc(Cl)cc2)N1 (stereo not given)
5. O=C(O)/C(Br)=C/c1c[nH]c2ccc(Br)cc12

Outgoing:
1: 99; 2: 110; 3: 64.8; 4: 98; 5: 110
